Would you kindly list inhibition for each of these molecules?
- MEASURED_TARGET: Calcium/calmodulin-dependent protein kinase type 1D (Homo sapiens) (UniProt Q8IU85);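 note: reported figure is the mean percent inhibition of CAMK1D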
- Sequence (Q8IU85 whole entry, looked up): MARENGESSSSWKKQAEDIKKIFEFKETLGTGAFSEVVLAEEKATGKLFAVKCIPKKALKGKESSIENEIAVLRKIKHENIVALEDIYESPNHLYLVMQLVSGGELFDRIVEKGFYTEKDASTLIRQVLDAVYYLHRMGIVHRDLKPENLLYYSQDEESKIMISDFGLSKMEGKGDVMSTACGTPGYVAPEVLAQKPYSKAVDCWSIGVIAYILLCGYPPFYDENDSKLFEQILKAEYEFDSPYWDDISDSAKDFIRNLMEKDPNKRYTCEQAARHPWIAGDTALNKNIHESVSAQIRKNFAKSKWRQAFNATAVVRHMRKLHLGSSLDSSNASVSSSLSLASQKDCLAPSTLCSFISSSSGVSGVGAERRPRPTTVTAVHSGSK
- MEASUREMENT_SETUP: at 1 µM
One number for each entry, in %.

Worked cases, inhibition given:
{"MOLECULE": "CN1CCC(C(=O)Nc2n[nH]c3nnc(-c4ccccc4)cc23)CC1", "MEASURED_TARGET": "Calcium/calmodulin-dependent protein kinase type 1D (Homo sapiens) (UniProt Q8IU85)", "UNIT_SPEC": "%", "inhibition": 1.89}
{"MOLECULE": "c1cnn2ncc(-c3ccnc(Nc4ccc5c(c4)OCCO5)n3)c2c1", "MEASURED_TARGET": "Calcium/calmodulin-dependent protein kinase type 1D (Homo sapiens) (UniProt Q8IU85)", "UNIT_SPEC": "%", "inhibition": 5.85}
{"MOLECULE": "COc1ccc2cc(-c3c(-c4ccncc4)nc(-c4ccc([S+](C)[O-])cc4)n3C)ccc2c1 (stereo unspecified)", "MEASURED_TARGET": "Calcium/calmodulin-dependent protein kinase type 1D (Homo sapiens) (UniProt Q8IU85)", "UNIT_SPEC": "%", "inhibition": 0.68}
{"MOLECULE": "CC1=C(C(=O)Nc2ccc3[nH]ncc3c2)C(c2ccc(F)cc2)NC(=O)N1 (stereo unspecified)", "MEASURED_TARGET": "Calcium/calmodulin-dependent protein kinase type 1D (Homo sapiens) (UniProt Q8IU85)", "UNIT_SPEC": "%", "inhibition": -0.14}
{"MOLECULE": "CCn1c(-c2nonc2N)nc2c(N3CCCC3)nccc21", "MEASURED_TARGET": "Calcium/calmodulin-dependent protein kinase type 1D (Homo sapiens) (UniProt Q8IU85)", "UNIT_SPEC": "%", "inhibition": -0.81}
{"MOLECULE": "O=C1NC(=O)C(c2cccc(Cl)c2)=C1Nc1ccc(O)c(Cl)c1", "MEASURED_TARGET": "Calcium/calmodulin-dependent protein kinase type 1D (Homo sapiens) (UniProt Q8IU85)", "UNIT_SPEC": "%", "inhibition": 5.88}
{"MOLECULE": "COC(=O)Nc1nc2cc(Oc3ccc(NC(=O)Nc4cccc(C(=O)O)c4)cc3)ccc2[nH]1", "MEASURED_TARGET": "Calcium/calmodulin-dependent protein kinase type 1D (Homo sapiens) (UniProt Q8IU85)", "UNIT_SPEC": "%", "inhibition": -1.87}
{"MOLECULE": "CCn1c(-c2nonc2N)nc2c(C#CC(C)(C)O)nc(CN3CCCC3)cc21", "MEASURED_TARGET": "Calcium/calmodulin-dependent protein kinase type 1D (Homo sapiens) (UniProt Q8IU85)", "UNIT_SPEC": "%", "inhibition": 2.08}

Go through the list and state inhibition for each entry.
1. Cc1nnc(-c2ccc(C)c(-c3ccc(C(=O)Nc4cccc(C#N)c4)cc3)c2)o1
2. CCCN1CCC(Oc2cc(Nc3nc(Nc4cccc(F)c4C(N)=O)c4cc[nH]c4n3)c(OC)cc2Cl)CC1
3. COc1cc2ncn(-c3cc(O[C@H](C)c4ccccc4Cl)c(C(N)=O)s3)c2cc1OC
4. NC(=O)c1ccc(-c2nc(-c3ccccn3)c(-c3ccc4c(c3)OCO4)[nH]2)cc1
5. NS(=O)(=O)c1cccc(-c2ccc3c(NC(=O)C4CC4)n[nH]c3c2)c1
6. NCc1ccc(-c2nc(-c3ccc(Cl)c(O)c3)c(-c3ccncc3)[nH]2)cc1

Found:
1: 0.26; 2: 23.1; 3: 2.31; 4: 0.23; 5: -0.98; 6: 0.23

Items follow; give inhibition for each.
1. O=C1Nc2ccc(C(=O)c3ccco3)cc2C1=Cc1cc(Cl)c(O)c(Cl)c1
2. CCn1c(-c2nonc2N)nc2ccncc21

Found:
1: 0.48; 2: 1.59
